Test system: NCCIT cells
Assay: NCCIT cell confluence
Assay type: cell-based, human
Conditions: read-out: IC50, NCCIT cells; single agent, confluency over 40 h
Parameter Measured: IC50 (µM)
Lab book: enter the figure in µM, no units written.

Q: Form: Entry = N.N.[Cl][Pt][Cl] [cisplatin, cis-diamminedichloroplatinum (II)] | System = NCCIT cells | IC50 = ____
A: 9

----------
Experiment: clinical phase I tolerability, cancer patients
Type: in vivo, human
Conditions: human, plasma, oral
Parameter Measured: Cmax

Q: What Cmax value was documented for this compound, `Cc1ncc(-c2ccnc(Nc3ccc(S(C)(=O)=O)cc3)n2)n1C(C)C` ?
A: < 300 ng/mL
